Target: CDK8/Cyclin C (Homo sapiens, UniProt P49336)
Sequence (P49336 whole entry): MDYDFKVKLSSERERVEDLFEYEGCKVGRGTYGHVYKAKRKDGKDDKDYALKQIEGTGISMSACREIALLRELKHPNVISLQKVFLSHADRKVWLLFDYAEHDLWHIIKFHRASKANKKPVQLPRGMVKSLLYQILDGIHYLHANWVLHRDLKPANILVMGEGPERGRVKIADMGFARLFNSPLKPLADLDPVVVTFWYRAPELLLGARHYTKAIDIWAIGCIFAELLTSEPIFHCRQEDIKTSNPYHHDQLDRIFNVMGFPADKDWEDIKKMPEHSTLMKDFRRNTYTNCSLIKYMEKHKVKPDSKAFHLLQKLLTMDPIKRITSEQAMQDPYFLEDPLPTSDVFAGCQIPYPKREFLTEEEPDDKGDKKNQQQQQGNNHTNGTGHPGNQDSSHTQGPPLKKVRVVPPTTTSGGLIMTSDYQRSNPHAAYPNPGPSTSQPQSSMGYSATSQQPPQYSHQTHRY
Sequence (P24863 whole entry partner): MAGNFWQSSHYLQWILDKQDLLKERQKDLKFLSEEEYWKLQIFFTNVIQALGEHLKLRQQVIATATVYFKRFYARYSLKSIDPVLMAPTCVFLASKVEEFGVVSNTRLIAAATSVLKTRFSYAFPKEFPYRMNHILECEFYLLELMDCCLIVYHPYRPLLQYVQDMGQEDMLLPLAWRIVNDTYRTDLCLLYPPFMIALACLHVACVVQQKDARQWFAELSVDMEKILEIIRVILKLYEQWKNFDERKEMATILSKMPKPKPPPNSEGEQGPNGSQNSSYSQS
Test: CDK8/Cyclin C LANCE TR-FRET kinase assay
Conditions: CDK8/Cyclin C 10 nM, ATP 24 μM, Ulight-GS peptide 80 nM, 37° C. 30 mins
From the text: CDK8/Cyclin C LANCE TR-FRET Kinase Assay: The biological activity of the compounds of the invention can be determined using the assay described below. CDK8/Cyclin C protein was obtained from Invitrogen, cat #PV4402. ULight-Glycogen Synthase (Ulight-GS) peptide with sequence PASVPPSPSLSRHSSPHQ(pS)ED, and Europium-anti-phospho Glycogen Synthase (Ser641) [Eu-anti-P-GS (Ser641)] were obtained from Perkin Elmer, cat #TRF0131-M and cat #TRF0220. […]
QUANTITY_NAME: IC50 (nM)

OC[C@H](Nc1cncc(-c2ccc3c(c2)OCO3)c1)c1ccccc1 [Example 14]	46.3
OCCNC[C@H](Nc1cncc(-c2ccc3[nH]nc(F)c3c2)c1)c1ccccc1 [Example 47]	15
NC(=O)C(Nc1cncc(-c2ccc3c(c2)CCC(=O)N3)c1)c1ccccc1 (stereo not drawn) [Example 33]	1890
Cc1n[nH]c2ccc(-c3cncc(N[C@@H](CNC(=O)C4CCCCC4)c4ccccc4)c3)cc12 [Example 57]	5.3
Cc1n[nH]c2ccc(-c3cncc(NC(CNS(C)(=O)=O)c4ccccc4)c3)cc12 (stereo not drawn) [Example 50]	2.8

[A] COCCS(=O)(=O)NC[C@H](Nc1cncc(-c2ccc3[nH]nc(C)c3c2)c1)c1ccccc1 [Example 53]
[B] Cc1n[nH]c2ccc(-c3cncc(N[C@@H](CO)c4ccccc4)c3)cc12 [Example 20]
Hey, between A and B which has a smaller measured IC50? Pick one; state its label.
B

[1] CCC(=O)NC[C@H](Nc1cncc(-c2ccc3[nH]nc(F)c3c2)c1)c1ccccc1 [Example 43]
[2] CCc1n[nH]c2ccc(-c3cncc(N[C@@H](CO)c4ccccc4)c3)cc12 [Example 21]
[3] NC(=O)C(Nc1cncc(-c2ccc3c(c2)OCCO3)c1)c1ccccc1 (stereo not drawn) [Example 36]
[4] OC[C@H](Nc1cncc(-c2ccc3[nH]ncc3c2)c1)c1ccccc1 [Example 16]
List from greatest to least IC50. A complete answer lists every label in the requested sequence.
3, 1, 2, 4
